# Test system: MOLM14-D835Y cells (FLT3-ITD (D835Y) mutant)
# assay.explanation: Combination drug screening with venetoclax in MOLM14 (D835Y) cells (Cell Titre Glo, 10 × 10)
# Format: cell-based
# Set-up: scale not given here
# details: 10 × 10 dataset, Cell Titre Glo at 48 hours, optimal of 4 dose combinations, negative = synergy
Reported values of Excess HSA (sum excess HSA score, combination with venetoclax) for individual entries
Answer with a bare number; do not write a unit.

Worked cases, answers included:
[
  {
    "molecule": "F[C@H]1CCNC[C@@H]1Nc1nccc(-c2cnc3cc(OC4CC4)c(C4CC4)nn23)n1 [Compound 12a]",
    "assay.system": "MOLM14-D835Y cells (FLT3-ITD (D835Y) mutant)",
    "test.value": "−1236"
  },
  {
    "molecule": "CC(O)(c1ccc2ncc(-c3ccnc(N[C@H]4CNCC[C@@H]4F)n3)n2c1)C(F)(F)F (single isomer, unassigned) [Compound 25a]",
    "assay.system": "MOLM14-D835Y cells (FLT3-ITD (D835Y) mutant)",
    "test.value": "−1507"
  },
  {
    "molecule": "CC(O)(c1ccc2ncc(-c3nc(N[C@H]4CNCC[C@@H]4F)ncc3F)n2c1)C(F)(F)F (single isomer, unassigned) [Compound 34a]",
    "assay.system": "MOLM14-D835Y cells (FLT3-ITD (D835Y) mutant)",
    "test.value": "−1437.9420"
  },
  {
    "molecule": "FC(F)COc1cc2ncc(-c3ccnc(N[C@H]4CNCC[C@@H]4F)n3)n2nc1C1CC1 [Compound 4a]",
    "assay.system": "MOLM14-D835Y cells (FLT3-ITD (D835Y) mutant)",
    "test.value": "−1769"
  },
  {
    "molecule": "CC(C)(O)c1ccc2ncc(-c3nc(N[C@@H]4CCCNC4)ncc3F)n2c1 [Compound 48a]",
    "assay.system": "MOLM14-D835Y cells (FLT3-ITD (D835Y) mutant)",
    "test.value": "−1694"
  },
  {
    "molecule": "COc1cc2ncc(-c3ccnc(N[C@H]4CNCC[C@@H]4F)n3)n2nc1C1CC(C)(C)C1 [Compound 82a]",
    "assay.system": "MOLM14-D835Y cells (FLT3-ITD (D835Y) mutant)",
    "test.value": "−1679"
  }
]

CC(C)(O)c1cn2c(-c3nc(N[C@H]4CNCC[C@@H]4F)ncc3F)cnc2cn1 [Compound 100a] yielded Excess HSA (sum excess HSA score, combination with venetoclax) of −1548

CC(O)(c1ccc2ncc(-c3nc(N[C@H]4CNCC[C@@H]4F)ncc3F)n2c1)C(F)(F)F (single isomer, unassigned) [Compound 35a] yielded Excess HSA (sum excess HSA score, combination with venetoclax) of −1543

COc1cc2ncc(-c3nc(N[C@H]4CNCC[C@@H]4F)ncc3F)n2nc1C1CC(F)(F)C1 [Compound 49a] yielded Excess HSA (sum excess HSA score, combination with venetoclax) of −1960

CCc1nc(C(N)=O)c(Nc2ccc(N3CCC(N4CCN(C)CC4)CC3)c(OC)c2)nc1NC1CCOCC1 [Gilteritinib, reference compound] yielded Excess HSA (sum excess HSA score, combination with venetoclax) of −1556

---

Reported values of Kd for individual entries
# assay.system: IRAK4 (Homo sapiens)
# Sequence (Q9NWZ3 1-460): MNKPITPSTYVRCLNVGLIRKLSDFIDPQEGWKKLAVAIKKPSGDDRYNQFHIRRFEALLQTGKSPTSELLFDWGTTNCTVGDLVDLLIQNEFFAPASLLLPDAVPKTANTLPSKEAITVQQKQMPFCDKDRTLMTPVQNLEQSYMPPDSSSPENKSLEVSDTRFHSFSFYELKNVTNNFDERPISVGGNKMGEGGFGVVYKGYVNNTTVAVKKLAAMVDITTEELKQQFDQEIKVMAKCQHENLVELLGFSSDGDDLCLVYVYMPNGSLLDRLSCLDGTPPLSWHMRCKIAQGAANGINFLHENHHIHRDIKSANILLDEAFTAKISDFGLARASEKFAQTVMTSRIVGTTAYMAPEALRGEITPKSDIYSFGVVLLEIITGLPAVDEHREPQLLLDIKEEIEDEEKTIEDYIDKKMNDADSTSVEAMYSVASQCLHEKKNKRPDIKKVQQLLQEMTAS

[
  {
    "compound": "CC(C)(O)c1ccc2ncc(-c3nc(N[C@H]4CNCC[C@@H]4F)ncc3F)n2c1 [Compound 46a]",
    "assay.system": "IRAK4 (Homo sapiens)",
    "Kd": "< 0.17 nM"
  }
]

COc1cc2ncc(-c3nc(N[C@H]4CNCC[C@@H]4F)ncc3F)n2nc1C1COC1 [Compound 92a] yielded Kd of < 0.17 nM

COc1cc2ncc(-c3nc(N[C@H]4CNCC[C@@H]4F)ncc3F)n2nc1C1CC1 [Compound 1a] yielded Kd of < 0.17 nM

---

# assay.system: IRAK1 (Homo sapiens, UniProt P51617)
# Sequence (P51617 whole entry): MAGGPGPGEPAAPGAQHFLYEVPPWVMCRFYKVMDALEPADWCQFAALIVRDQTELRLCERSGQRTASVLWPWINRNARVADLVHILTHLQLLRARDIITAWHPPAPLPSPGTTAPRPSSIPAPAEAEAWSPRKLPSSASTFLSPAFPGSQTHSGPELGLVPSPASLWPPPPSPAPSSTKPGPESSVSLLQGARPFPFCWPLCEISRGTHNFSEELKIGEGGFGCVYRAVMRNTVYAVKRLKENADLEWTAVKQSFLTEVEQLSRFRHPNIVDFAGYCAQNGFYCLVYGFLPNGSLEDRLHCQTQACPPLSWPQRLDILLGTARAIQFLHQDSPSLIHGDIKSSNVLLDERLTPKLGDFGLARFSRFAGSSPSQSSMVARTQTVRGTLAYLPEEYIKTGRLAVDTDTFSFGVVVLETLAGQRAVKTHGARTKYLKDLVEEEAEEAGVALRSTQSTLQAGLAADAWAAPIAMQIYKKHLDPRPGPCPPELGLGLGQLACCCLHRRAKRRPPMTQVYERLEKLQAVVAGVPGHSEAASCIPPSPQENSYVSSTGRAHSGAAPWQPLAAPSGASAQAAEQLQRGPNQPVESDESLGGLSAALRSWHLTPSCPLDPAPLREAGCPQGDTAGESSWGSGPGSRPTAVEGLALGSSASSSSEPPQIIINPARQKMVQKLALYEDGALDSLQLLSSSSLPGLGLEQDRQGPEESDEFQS
# assay.explanation: RBC HotSpot Kinase Assay, IRAK1
# details: isolated kinase enzyme, 33P-ATP, P81 filter-binding
assay.endpoint: log10 of IC50 (log10 of the value in nM)
On a log10 scale: recorded IC50, unit nM.

[
  {
    "compound": "CC(C)(O)c1cn2c(-c3nc(N[C@@H]4CCCNC4)ncc3F)cnc2cn1 [Compound 99a]",
    "assay.system": "IRAK1 (Homo sapiens, UniProt P51617)",
    "log10 of IC50": 1.64
  }
]

COc1cc2ncc(-c3nc(N[C@H]4CNCC[C@@H]4F)ncc3F)n2nc1N1CCCS1(=O)=O [Compound 112a] yielded log10 of IC50 of 1.28

Fc1cnc(N[C@H]2CNCC[C@@H]2F)nc1-c1cnc2cnc(C3COC3)cn12 [Compound 117a] yielded log10 of IC50 of 2.60

COc1cc2ncc(-c3ccnc(N[C@H]4CNCC[C@@H]4F)n3)n2nc1C12CC(C1)C2 [Compound 91a] yielded log10 of IC50 of 1.65

COc1cc2ncc(-c3nc(N[C@@H]4CCCNC4)ncc3F)n2nc1C1COC1 [Compound 94a] yielded log10 of IC50 of 1.45

CC(O)(c1ccc2ncc(-c3cncc(N[C@@H]4CCCNC4)n3)n2c1)C(F)(F)F (single isomer, unassigned) [Compound 29a] yielded log10 of IC50 of 1.43

COc1cc2ncc(-c3nc(N[C@H]4CNCC[C@@H]4F)ncc3F)n2nc1C1CC2(CCC2)C1 [Compound 60a] yielded log10 of IC50 of 0.60

COc1cc2ncc(-c3ccnc(N[C@@H]4CCCNC4)n3)n2nc1C1CCC1 [Compound 78a] yielded log10 of IC50 of 1.88

CC(O)(c1ccc2ncc(-c3nc(N[C@H]4CNCC[C@@H]4F)ncc3F)n2c1)C(F)(F)F (single isomer, unassigned) [Compound 34a] yielded log10 of IC50 of 0.60

[2H]C([2H])([2H])Oc1cc2ncc(-c3ccnc(N[C@@H]4CCCNC4)n3)n2nc1C1CC1 [Compound 129a] yielded log10 of IC50 of 1.93

COc1cc2ncc(-c3nc(N[C@H]4CNC[C@@H]4F)ncc3F)n2nc1C(C)(C)O [Compound 44a] yielded log10 of IC50 of 1.51

COc1cc2ncc(-c3ccnc(N[C@H]4CNCC[C@@H]4F)n3)n2nc1[C@H]1C[C@@H](O)C1 [Compound 127a] yielded log10 of IC50 of 1.30

---

# Test system: MOLM14 F691L cells
# assay.explanation: MOLM14 F691L cell viability assay (Cell Titer Glo)
# Type: cell-based
# details: Homo sapiens, MOLM-14; cell viability, Cell Titer Glo, 48 hours; read-out: MOLM14 F691L IC50
assay.endpoint: IC50 (nM)
Your answer is read as nM, so omit the unit and give the number.

Worked cases, answers included:
[
  {
    "compound": "COc1cc2ncc(-c3nc(N[C@H]4CNC[C@@H]4F)ncc3F)n2nc1C1COC1 [Compound 93a]",
    "unit.annotation": "nM",
    "IC50": 142
  },
  {
    "compound": "COc1cc2ncc(-c3ccnc(N[C@H]4CNC[C@@H]4F)n3)n2nc1C1CCC1 [Compound 77a]",
    "unit.annotation": "nM",
    "IC50": 142
  }
]

COc1cc2ncc(-c3nc(N[C@H]4CNC[C@@H]4F)ncc3F)n2nc1C1CC2(CCC2)C1 [Compound 58a] yielded IC50 of 127

---

# assay.system: IRAK4 (Homo sapiens, UniProt Q9NWZ3)
# assay.explanation: RBC HotSpot Kinase Assay, IRAK4
# Assay type: biochemical
# Parameters: purchased Reaction Biology (RBC HotSpot)
# details: isolated kinase enzyme, 33P-ATP, P81 filter-binding
Reported values of IC50 for individual entries
Your answer is read as nM, so omit the unit and give the number.

Worked cases, answers included:
[
  {
    "compound": "COc1cc2ncc(-c3nc(N[C@H]4CNC[C@@H]4F)ncc3F)n2nc1C1CCC1 [Compound 52a]",
    "unit.annotation": "nM",
    "IC50": 0.9
  },
  {
    "compound": "CC(C)(O)c1ccc2ncc(-c3nc(N[C@H]4CNCC[C@@H]4F)ncc3F)n2c1 [Compound 46a]",
    "unit.annotation": "nM",
    "IC50": 2
  }
]

COc1cc2ncc(-c3ccnc(N[C@H]4CNC[C@@H]4F)n3)n2nc1C12CC(C1)C2 [Compound 89a] yielded IC50 of 4

COc1cc2ncc(-c3nc(N[C@H]4CNCC[C@@H]4F)ncc3F)n2nc1N1CCS(=O)(=O)CC1 [Compound 122a] yielded IC50 of 18

"COc1cc2ncc(-c3nc(N[C@H]4CNCC[C@@H]4F)ncc3F)n2nc1C1CC1" yielded IC50 of 0.9

CC(O)(c1ccc2ncc(-c3nc(N[C@H]4CNC[C@@H]4F)ncc3F)n2c1)C(F)(F)F (single isomer, unassigned) [Compound 36a] yielded IC50 of 2

COc1cc2ncc(-c3cncc(N[C@H]4CNC[C@@H]4F)n3)n2nc1C1CC(F)(F)C1 [Compound 71a] yielded IC50 of 64

From: patent US20260226048A1
